# Tested on: NCI/ADR-RES ovarian
# RUN_DESCRIPTION: NCI tumour cell line growth inhibition, 48 h
MEASUREMENT_TYPE: TGI

MOLECULE | MEASUREMENT_TYPE | RESULT
COC(=O)c1ccccc1C1CN=NC12Cc1ccc(C)c(C)c1C2=O (stereo not drawn) | TGI | > 100 µM
C#CCC(Cc1cnc2nc(N)nc(N)c2n1)c1ccc(C(=O)N[C@@H](CCC(=O)O)C(=O)O)cc1 (stereo partly drawn) | TGI | > 100 µM
C=CC(=O)N1CCN(c2nc(=O)n(-c3c(C)ccnc3C(C)C)c3nc(-c4c(O)cccc4F)c(F)cc23)[C@@H](C)C1 | TGI | > 100 µM

---

# Tested on: UO-31 renal
# RUN_DESCRIPTION: NCI tumour cell line growth inhibition, 48 h
Listing of recorded GI50 by entry.

RECORD_SMILES | GI50
CCc1c(C#N)c(S[C@@H](C(N)=O)c2ccccc2)nc(N(C)C)c1C#N | 2950 nM
Fc1ccc2c(c1)c(-c1nc(-c3c[nH]c4ncccc34)cs1)cn2CCCN1CCCCC1 | 1280 nM
O=C1/C(=C/c2ccccc2)CN(C(=O)c2cccnc2)C/C1=C\c1ccccc1 | 1400 nM
O=c1ccc2nc(-c3ccccc3)nn(-c3ccccn3)c-2c1 | 1450 nM
NC(N)=N/N=C\c1cccc(OCc2ccccc2)c1 | 7350 nM

---

# Test system: RXF 393 renal
# RUN_DESCRIPTION: NCI tumour cell line growth inhibition, 48 h

MOLECULE | ASSAY_TARGET | TGI
Cn1nc2ccc3nccc(N4CCN(CCO)CC4)c3c2n1 | RXF 393 renal | > 100 µM
Oc1ccccc1C=NCc1ccco1 | RXF 393 renal | > 100 µM
COc1c(C)c2c(c(=O)c3c(C)cccc3n2C)c2c1c(=O)c1c(C)cccc1n2C | RXF 393 renal | > 10 µM
CCC(CO)Nc1nc(NCc2ccccc2O)c2ncn(C(C)C)c2n1 (centres undefined) | RXF 393 renal | > 100 µM

---

# Tested on: HOP-92 NSCLC
# RUN_DESCRIPTION: NCI tumour cell line growth inhibition, 48 h
Listing of recorded TGI by entry.

MOLECULE | RESULT_UNITS | QUALIFIER_SYMBOL | TGI
CCOC(=O)N1CCc2cc(OC)c(OC)c3c2c1cc1cc(OC)c(OC)cc13 | µM | = | 44.8
O=c1ccc2nc(-c3ccccc3)nn(-c3ccccn3)c-2c1 | µM | = | 3.31
COc1ccc(/C=C\c2cc(OC)c(OC)c(OC)c2)cc1OC(=O)c1cccc(Cn2cc(CCOC(=O)[C@H](N)Cc3cn(C)c4ccccc34)nn2)c1 | µM | > | 88.2
CC(=O)[CH-]C(=O)c1ccccc1.CC(=O)[CH-]C(=O)c1ccccc1.[Eu+3].[OH-].[OH3+] | µM | = | 99.7
O=c1cc2ccccc2nn1Cc1cccc(Cl)c1 | µM | > | 100
O=c1ccn(C2OC(CO/N=C/c3ccc(O)c(O)c3O)C(O)C2O)c(=O)[nH]1 (stereo unspecified) | µM | > | 100
COc1cc2cc(Oc3ccc(NC(=O)Nc4cccc(C(F)(F)F)c4)cc3)c(C)nc2cc1OC | µM | = | 3.96
N#Cc1c(NN)nc(NN)c(C#N)c1-c1ccccc1 | µM | > | 100
CCCc1cc2c(=O)c(C(=O)OC)c[nH]c2cc1N(CC)CC | µM | = | 52.7
COC(=O)C(=O)OC1(C(C)=O)CC2(c3ccccc3)OC1(c1ccccc1)c1ccccc12 (stereo unspecified) | µM | = | 27
C=CC[N+]12CN3CN(CN(C3)C1)C2 | µM | = | 46.9
CS/C1=C(\c2ccc(C)cc2)N(c2ccccc2)C(=O)C(=O)N(c2ccccc2)/C(c2ccc(C)cc2)=C(/SC)SS1 | µM | > | 100
Oc1cc(O)c2c(-c3c(O)c(-c4ccc(O)c(O)c4)[o+]c4cc(O)cc(O)c34)c(O)c(-c3ccc(O)c(O)c3)[o+]c2c1 | µM | > | 100
Cc1ccccc1C(=O)c1ccccc1O | µM | > | 100
COC(=O)c1sc2ncc3c(c2c1N)CCCCCC3 | µM | > | 100
COC(=O)C1=C(C(=O)ON)C2C=CC1(C(Cc1ccccc1)Nc1ccccc1)O2 (stereo unspecified) | µM | = | 2.91
